The entries below are paired with their reported inhibition at 1 µM.
Biological target: AChE (Rattus norvegicus)
Construct: 0.1-0.2 ml of enzyme solution (red cell membrane or serum of rat) was added; from tissue; host or cells: rat tissue
Assay: biochemical
Details: Table 6; 1 μM
// units = %; emit number, no label

molecule: CC=C1C2C=C(C)CC1(N=Cc1ccc(O)cc1O)c1ccc(=O)[nH]c1C2 (stereo not shown)
inhibition at 1 µM / %: 34.4

Query: Item CC=C1C2C=C(C)CC1(N=Cc1cc(OC)c(OC)c(OC)c1)c1ccc(=O)[nH]c1C2 (stereo not shown) has what recorded inhibition at 1 µM?
Result: 84.9

* * *

Biological target: butyrylcholinesterase (BuChE) (Rattus norvegicus, UniProt Q9JKC1)
Construct: from tissue; host or cells: rat serum
Test: In-vitro anticholinesterase effect, colorimetric method (Ellman), BuChE from rat's serum
Type: biochemical
Conditions: read-out: concentration for inhibition of 50% of enzyme activity (IC50) butyrylcholinesterase (BuChE); Table 2; BuChE taken from rat's serum
attribute_measured: pIC50
The read-out pIC50 is expressed as -log10 of concentration in moles per litre.

Worked cases, pIC50 given:
compound: CC=C1C2C=C(C)CC1(NC(=O)c1ccccc1C(=O)O)c1ccc(=O)[nH]c1C2 (stereo not drawn)
attribute_measured: pIC50
endpoint_result: 3.30
--
compound: CC=C1C2C=C(C)CC1(NC(=O)CCC(=O)O)c1ccc(=O)[nH]c1C2 (stereo not drawn)
attribute_measured: pIC50
endpoint_result: 3.42

Field: next compound
Query: Item CC=C1C2C=C(C)CC1(NC(=O)c1ccccn1)c1ccc(=O)[nH]c1C2 (stereo not drawn) has what recorded pIC50?
Result: 3.60

* * *

The entries below are paired with their reported LD50.
Assay: Critical toxicity on mice (Bliss method)
Format: in vivo
Conditions: mouse, in vivo, po, mice, p.o., Bliss method; mortality within 7 days; first of two columns headed LD50; read-out: LD50 (first column) (95% confidence limit)
// units = mg/kg; emit number, no label

compound: CC=C1C2C=C(C)CC1(N=Cc1ccc(OC)c(O)c1)c1ccc(=O)[nH]c1C2 (centres unmarked) [derivative No. 18]
LD50 (mg/kg): 9.6

Query: Item CC=C1C2C=C(C)CC1(N=Cc1c(O)cc(OC)cc1OC)c1ccc(=O)[nH]c1C2 (centres unmarked) [derivative No. 19] has what recorded LD50?
Result: 11.1

* * *

Assay: Critical toxicity on mice (Bliss method)
Assay type: in vivo
Details: mouse, in vivo, po, mice, p.o., Bliss method; mortality within 7 days; second of two columns headed LD50; read-out: LD50 (second column) (95% confidence limit)
attribute_measured: LD50 at 7 days (mg/kg)
// units = mg/kg; emit number, no label

Query: Item C/C=C1\C2C=C(C)C[C@]1(N)c1ccc(=O)[nH]c1C2 [huperzine A, reference compound] has what recorded LD50 at 7 days?
Result: 4.6

* * *

Target: butyrylcholinesterase (BuChE) (Rattus norvegicus, UniProt Q9JKC1)
Construct: from tissue; host or cells: rat serum
Assay: In-vitro anticholinesterase effect, colorimetric method (Ellman), BuChE from rat's serum
Assay type: biochemical
attribute_measured: pIC50
The read-out pIC50 is expressed as -log10 of concentration in moles per litre.

molecule: CC=C1C2C=C(C)CC1(N=Cc1ccc(OC)c(O)c1)c1ccc(=O)[nH]c1C2 (stereo not shown)
measured_on: butyrylcholinesterase (BuChE) (Rattus norvegicus, UniProt Q9JKC1)
pIC50: 3.97

Query: Item CC=C1C2C=C(C)CC1(N=Cc1c(O)cc(OC)cc1OC)c1ccc(=O)[nH]c1C2 (stereo not shown) has what recorded pIC50?
Result: 3.98

* * *

Target: BuChE (Rattus norvegicus, UniProt Q9JKC1)
Construct: from tissue; host or cells: rat serum
Sequence (Q9JKC1 24-597): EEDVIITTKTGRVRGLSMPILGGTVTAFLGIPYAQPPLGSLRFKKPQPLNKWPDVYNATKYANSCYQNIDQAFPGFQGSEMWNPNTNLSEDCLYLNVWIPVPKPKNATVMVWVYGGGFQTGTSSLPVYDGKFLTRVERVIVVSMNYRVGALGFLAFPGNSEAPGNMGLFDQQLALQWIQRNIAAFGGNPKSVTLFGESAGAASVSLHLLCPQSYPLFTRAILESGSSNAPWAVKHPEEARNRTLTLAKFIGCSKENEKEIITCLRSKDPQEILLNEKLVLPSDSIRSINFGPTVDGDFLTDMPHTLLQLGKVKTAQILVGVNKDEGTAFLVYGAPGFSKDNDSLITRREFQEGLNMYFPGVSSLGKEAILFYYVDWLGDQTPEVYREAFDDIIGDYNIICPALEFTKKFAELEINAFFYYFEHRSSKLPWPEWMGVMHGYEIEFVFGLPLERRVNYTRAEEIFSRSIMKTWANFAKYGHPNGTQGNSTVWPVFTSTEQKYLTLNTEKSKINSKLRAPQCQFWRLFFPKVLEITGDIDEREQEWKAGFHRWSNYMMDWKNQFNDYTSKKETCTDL
Test: In-vitro anticholinesterase effect (Table 6), BuChE
Format: biochemical
Conditions: read-out: inhibition activity BuChE at 10(μM)
attribute_measured: inhibition at 10 µM (%)
// units = %; emit number, no label

Worked cases, inhibition at 10 µM given:
compound: CC=C1C2C=C(C)CC1(N=Cc1ccc(OC)c(O)c1)c1ccc(=O)[nH]c1C2 (stereo not drawn)
inhibition at 10 µM, %: 0
//
compound: COc1cc2c(cc1OC)C(=O)C(CC1CCN(Cc3ccccc3)CC1)C2 (stereo not drawn) [E-2020, reference compound]
inhibition at 10 µM, %: 2.9

Field: next compound
Query: Query inhibition at 10 µM on BuChE (Rattus norvegicus, UniProt Q9JKC1) for CC=C1C2C=C(C)CC1(N=Cc1cccc(OC)c1O)c1ccc(=O)[nH]c1C2 (stereo not drawn)
Result: 1.1

* * *

Molecular target: AChE (Rattus norvegicus, UniProt P37136)
Construct: 0.1-0.2 ml of enzyme solution (red cell membrane or serum of rat) was added; from tissue; host or cells: rat tissue
Sequence (P37136 32-614): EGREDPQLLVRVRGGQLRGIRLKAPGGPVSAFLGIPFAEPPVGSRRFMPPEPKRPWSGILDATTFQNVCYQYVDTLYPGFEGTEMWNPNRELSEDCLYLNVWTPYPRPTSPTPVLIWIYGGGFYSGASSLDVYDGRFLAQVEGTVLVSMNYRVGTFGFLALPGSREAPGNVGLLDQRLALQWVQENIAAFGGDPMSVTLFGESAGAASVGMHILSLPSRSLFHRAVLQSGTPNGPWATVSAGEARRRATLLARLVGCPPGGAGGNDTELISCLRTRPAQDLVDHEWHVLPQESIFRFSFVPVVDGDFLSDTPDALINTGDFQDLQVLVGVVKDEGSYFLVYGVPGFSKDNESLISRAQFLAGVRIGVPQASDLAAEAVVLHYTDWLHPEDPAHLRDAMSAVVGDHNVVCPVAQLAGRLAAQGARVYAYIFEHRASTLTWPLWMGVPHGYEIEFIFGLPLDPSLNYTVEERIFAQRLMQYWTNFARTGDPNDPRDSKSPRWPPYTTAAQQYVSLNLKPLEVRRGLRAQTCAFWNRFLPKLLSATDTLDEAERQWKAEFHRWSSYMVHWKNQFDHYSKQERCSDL
Test: biochemical
Settings: Table 6
The entries below are paired with their reported BuChE/AChE.

molecule: CC=C1C2C=C(C)CC1(N=Cc1ccccc1O)c1ccc(=O)[nH]c1C2 (centres unmarked)
endpoint_result: >500

molecule: CC=C1C2C=C(C)CC1(N=Cc1cccc(OC)c1O)c1ccc(=O)[nH]c1C2 (centres unmarked)
endpoint_result: >300

molecule: CC=C1C2C=C(C)CC1(N=CC=Cc1ccccc1)c1ccc(=O)[nH]c1C2 (centres unmarked)
endpoint_result: >500

molecule: CC=C1C2C=C(C)CC1(N=Cc1cccnc1)c1ccc(=O)[nH]c1C2 (centres unmarked)
endpoint_result: >500

Field: next molecule
Query: Item CC=C1C2C=C(C)CC1(N=Cc1ccc(OC)c(O)c1)c1ccc(=O)[nH]c1C2 (centres unmarked) has what recorded BuChE/AChE?
Result: >500

* * *

Target: acetylcholinesterase (AChE) (Rattus norvegicus)
Construct: from tissue; host or cells: rat red cell membrane
Sequence (P37136 other isoform, or with tags, fused parts or gaps): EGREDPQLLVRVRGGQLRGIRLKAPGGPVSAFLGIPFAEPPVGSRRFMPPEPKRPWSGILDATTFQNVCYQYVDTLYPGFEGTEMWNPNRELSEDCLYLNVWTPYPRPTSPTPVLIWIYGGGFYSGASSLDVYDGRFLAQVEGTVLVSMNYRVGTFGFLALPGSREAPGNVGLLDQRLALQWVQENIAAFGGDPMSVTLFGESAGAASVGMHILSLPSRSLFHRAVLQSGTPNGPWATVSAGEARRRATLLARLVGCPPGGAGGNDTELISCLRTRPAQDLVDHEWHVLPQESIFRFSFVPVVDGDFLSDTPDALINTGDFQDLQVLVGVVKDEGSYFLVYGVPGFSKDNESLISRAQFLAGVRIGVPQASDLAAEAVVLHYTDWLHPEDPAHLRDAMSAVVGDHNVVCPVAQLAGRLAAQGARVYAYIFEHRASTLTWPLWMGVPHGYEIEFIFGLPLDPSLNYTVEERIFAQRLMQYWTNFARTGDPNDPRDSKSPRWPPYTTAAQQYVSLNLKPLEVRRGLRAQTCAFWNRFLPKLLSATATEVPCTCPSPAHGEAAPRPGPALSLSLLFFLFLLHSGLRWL
Test: biochemical
Format: biochemical
Details: Table 1; AChE taken from rat's red cell membrane
Source text: In the present invention a calorimetric method reported by Ellman was used to determine the effect of inhibition of the pharmaceutical on enzyme activity. […]
attribute_measured: pIC50
The read-out pIC50 is expressed as -log10 of concentration in moles per litre.

Worked cases, pIC50 given:
molecule: CC=C1C2C=C(C)CC1(NC(=O)Cc1ccccc1)c1ccc(=O)[nH]c1C2 (centres unmarked)
pIC50: 5.04
//
molecule: CC=C1C2C=C(C)CC1(N=Cc1c(O)cc(OC)cc1OC)c1ccc(=O)[nH]c1C2 (centres unmarked)
pIC50: 6.84

Field: next molecule
Query: Item CC=C1C2C=C(C)CC1(N=Cc1ccc(OC)c(O)c1)c1ccc(=O)[nH]c1C2 (centres unmarked) has what recorded pIC50?
Result: 6.82

* * *

Biological target: AChE (Rattus norvegicus)
Construct: 0.1-0.2 ml of enzyme solution (red cell membrane or serum of rat) was added; from tissue; host or cells: rat tissue
Experiment: biochemical
Conditions: Table 6; read-out: inhibition activity AChE IC50
attribute_measured: pIC50
The read-out pIC50 is expressed as -log10 of concentration in moles per litre.

compound: CC=C1C2C=C(C)CC1(N=Cc1cccnc1)c1ccc(=O)[nH]c1C2 (centres unmarked)
pIC50: 6.96

compound: CC=C1C2C=C(C)CC1(N=Cc1cccc(O)c1O)c1ccc(=O)[nH]c1C2 (centres unmarked)
pIC50: 6.55

compound: CC=C1C2C=C(C)CC1(N=Cc1ccc(OC)c(O)c1)c1ccc(=O)[nH]c1C2 (centres unmarked)
pIC50: 7.08

compound: CC=C1C2C=C(C)CC1(N=Cc1cccc(OC)c1O)c1ccc(=O)[nH]c1C2 (centres unmarked)
pIC50: 6.74

Field: next compound
Query: Item CC=C1C2C=C(C)CC1(N=CC=Cc1ccccc1)c1ccc(=O)[nH]c1C2 (centres unmarked) has what recorded pIC50?
Result: 6.96

* * *

Biological target: butyrylcholinesterase (BuChE) (Rattus norvegicus, UniProt Q9JKC1)
Construct: from tissue; host or cells: rat serum
Experiment: In-vitro anticholinesterase effect, colorimetric method (Ellman), BuChE from rat's serum
Format: biochemical
Settings: read-out: concentration for inhibition of 50% of enzyme activity (IC50) butyrylcholinesterase (BuChE); Table 1; BuChE taken from rat's serum
The entries below are paired with their reported IC50.

compound: CC=C1C2C=C(C)CC1(NC(=O)c1ccccc1)c1ccc(=O)[nH]c1C2 (stereo not shown) [derivative No. 11]
IC50: 363 µM

Query: Query IC50 on butyrylcholinesterase (BuChE) (Rattus norvegicus, UniProt Q9JKC1) for CC=C1C2C=C(C)CC1(NC(=O)C1=CN(C)CC=C1)c1ccc(=O)[nH]c1C2 (stereo not shown) [derivative No. 6]
Result: > 309 µM

Query: Query IC50 on butyrylcholinesterase (BuChE) (Rattus norvegicus, UniProt Q9JKC1) for CC=C1C2C=C(C)CC1(NC(=O)C(C)C)c1ccc(=O)[nH]c1C2 (stereo not shown) [derivative No. 10]
Result: 110 µM

Query: Query IC50 on butyrylcholinesterase (BuChE) (Rattus norvegicus, UniProt Q9JKC1) for CC=C1C2C=C(C)CC1(NC(=O)CCC(=O)O)c1ccc(=O)[nH]c1C2 (stereo not shown) [derivative No. 1]
Result: 380 µM
